Data origin, for the record: patent US20220119492A1

- Target under test: T1, cynomolgus monkey Rγc subunit (cynomolgus monkey)
- T1 construct: also called cyno-IL-2Rγc subunit
- Test name: competition ELISA, peptide tracer
Ends that are not written are not given here.
Each entry below carries its recorded IC50.
Reported metric: IC50

[
  {
    "Binder": "SEQ ID NO 4175 (peptide) peptide: GGRYVHDCFIAQVGDLCDLFLHGGGGSGGGGSGGGGSGGGGSGGVVCQDWEGVELCWQGG",
    "Recorded value": "< 100 µM"
  },
  {
    "Binder": "IL-2Rβγc ligand BGL24 (cysteine pairing not given here; also: two chains joined by non-peptidyl linker L11 (click chemistry), Made by click chemistry) peptide 1: GGRYVHDCFIAQVGDLCDLALHPAPAPAPAPAPAPAPA peptide 2: VVCQDWEGVELCWQGG",
    "Recorded value": "< 100 µM"
  },
  {
    "Binder": "IL-2Rβγc ligand BGL23 (cysteine pairing not given here; also: two chains joined by non-peptidyl linker L11 (click chemistry), Made by click chemistry) peptide 1: GGRYVHACFIAQVGDLCDLFLHPAPAPAPAPAPAPAPA peptide 2: VVCQDWEGVELCWQGG",
    "Recorded value": "< 100 µM"
  },
  {
    "Binder": "SEQ ID NO 4178 (peptide) peptide: GGELLVDCFKVKVGELCDLFFGPAPAPAPAPAPAPAPAGVVCQDWEGVELCWQGG",
    "Recorded value": "< 100 µM"
  },
  {
    "Binder": "SEQ ID NO 4185 (peptide) peptide: GGRYVHDCFIGQVGDLCDLFLHPAPAPAPAPAPAPAPAGVVCQDWEGVELCWQGG",
    "Recorded value": "< 100 µM"
  },
  {
    "Binder": "SEQ ID NO 4177 (peptide) peptide: GGELLVDCFKVKVGELCDLFFGPAPAPAPAPAPAPAPAPAPAPAVVCQDWEGVELCWQGG",
    "Recorded value": "< 100 µM"
  },
  {
    "Binder": "IL-2Rβγc ligand BGL22 (cysteine pairing not given here; also: two chains joined by non-peptidyl linker L11 (click chemistry), Made by click chemistry) peptide 1: GGRYVHDCFIAQVGALCDLFLHPAPAPAPAPAPAPAPA peptide 2: VVCQDWEGVELCWQGG",
    "Recorded value": "< 100 µM"
  },
  {
    "Binder": "SEQ ID NO 4176 (peptide) peptide: GGRYVHDCFIAQVGDLCDLFLHPAPAPAPAPAPAPAPAGVVCQDWEGVELCWQGG",
    "Recorded value": "< 100 µM"
  },
  {
    "Binder": "IL-2Rβγc ligand having SEQ ID NO: 4171 (peptide) peptide: GGGELLVDCFKVKVGELCDLFFGPAPAPAPAPAPAPAPAGVVCQDWEGVELCWQGG",
    "Recorded value": "< 100 µM"
  }
]
